Target: A. gambiae CPR (Anopheles gambiae, UniProt Q86QH5, H459Y/V230A)
Sequence (Q86QH5 entry or part of it V230A/H459Y): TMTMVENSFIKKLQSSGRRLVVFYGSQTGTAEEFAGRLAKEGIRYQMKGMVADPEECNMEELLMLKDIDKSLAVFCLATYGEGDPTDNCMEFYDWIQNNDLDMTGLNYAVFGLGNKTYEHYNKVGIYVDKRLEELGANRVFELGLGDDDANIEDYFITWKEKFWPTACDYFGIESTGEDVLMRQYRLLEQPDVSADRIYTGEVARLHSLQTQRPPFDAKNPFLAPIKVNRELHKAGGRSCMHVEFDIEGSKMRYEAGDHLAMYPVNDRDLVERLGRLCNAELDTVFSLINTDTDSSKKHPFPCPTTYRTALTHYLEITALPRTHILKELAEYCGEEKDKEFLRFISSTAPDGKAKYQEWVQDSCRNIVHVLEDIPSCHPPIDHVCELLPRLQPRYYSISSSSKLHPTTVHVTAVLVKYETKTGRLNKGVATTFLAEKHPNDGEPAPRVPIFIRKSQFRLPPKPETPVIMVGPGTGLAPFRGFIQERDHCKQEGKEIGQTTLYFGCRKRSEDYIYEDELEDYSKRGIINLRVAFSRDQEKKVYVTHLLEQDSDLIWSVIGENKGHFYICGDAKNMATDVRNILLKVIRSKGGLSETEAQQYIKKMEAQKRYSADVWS
Experiment: biochemical
measured quantity: IC50 (µM)
A number alone suffices; assume µM.

Ask: Which IC50 is reported for this molecule? c1ccc([I+]c2ccccc2)cc1 [DPI, diphenyliodonium chloride]
Result: 28
